assay: viability loss in pontine glioma line – cell-based, SU-DIPG-XIII, MIPE4.0, CellTiter-Glo, qHTS, dose response (AID 1347061); conditions: CellTiter-Glo ATP luminescence;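 also: cells exposed to compound for 48 hours before readout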
Inconclusive results are not listed. Calls of active or inactive are those of the source. The limit is not given here; nearly all actives have AC50 up to about 37 µM.
Please state which outcome applies, choosing from active, inactive

Observe how each entry below is paired with its result.
molecule	class assignment
COc1ccc(CCN2CCN(CCCc3ccccc3)CC2)cc1OC	inactive
Clc1ccc(C(c2ccc(Cl)cc2)n2cc[n+](CC(OCc3ccc(Cl)cc3Cl)c3ccc(Cl)cc3Cl)c2)cc1 (stereo unspecified)	active
C[C@@H](NC(=O)c1ncnc(N)c1Cl)c1ncc(C(=O)Nc2cc(C(F)(F)F)c(Cl)cn2)s1	active
C[C@@]12O[C@@H](C[C@]1(O)CO)n1c3ccccc3c3c4c(c5c6ccccc6n2c5c31)CNC4=O	active
CCOC(=O)[C@@H](N)CCC(=O)N[C@@H](CSCc1ccccc1)C(=O)N[C@@H](C(=O)OCC)c1ccccc1	inactive

[ask] Field: outcome | Entry: `CC[C@H](/C=C/[C@@H](C)[C@H]1CC[C@H]2[C@@H]3CC=C4C[C@@H](O)CC[C@]4(C)[C@H]3CC[C@]12C)C(C)C`
[reply] inactive

[ask] Field: outcome | Entry: `O=C(Nc1ncc(-c2cc(C(F)F)nn2-c2c(Cl)cccc2Cl)s1)C1CC1`
[reply] active

[ask] Field: outcome | Entry: `CC(C)(O)Cn1c(NC(=O)c2ccc(-c3cn[nH]c3)s2)nc2cc(CN3CCOCC3)ccc21`
[reply] active

// data source = PubChem BioAssay
